So I've got a bunch of molecules here, and I need their pIC50 values.
Test system: MIA PaCa-2 cells
Assay: Growth inhibition activity on KRAS-G12C mutant cell line (CellTiter-Glo 3D)
Assay type: cell-based, human
Conditions: Homo sapiens, MIA PaCa-2, 72 h, MIA PaCa-2, 3-day culture with compound; Table 3-1
Answers are plain numbers, as −log10 of the molar value.

- molecule: "CN1CCc2cc(C(=O)c3cc(F)c(NC(=O)/C=C/CNCC(C)(C)CO)c(F)c3)n3cccc(c23)-c2c(C(F)(F)F)cc3c(ncn3C)c21"
  measuredOn: "MIA PaCa-2 cells"
  pIC50: 7.98
- molecule: "Cc1cc2c(ncn2C)c2c1-c1cccn3c(C(=O)c4cc(F)c(NC(=O)/C=C/CN[C@H]5CCOC5)c(F)c4)cc(c13)CCN2C (single isomer, unassigned)"
  measuredOn: "MIA PaCa-2 cells"
  pIC50: 7.26
- molecule: "CO[C@H]1CC[C@H](NC/C=C/C(=O)Nc2c(F)cc(C(=O)c3cn4c5c(cccc35)-c3c(C(F)(F)F)cc5c(nc(C)n5C)c3N(C)C(=O)C4)cc2F)CC1"
  measuredOn: "MIA PaCa-2 cells"
  pIC50: 8.15
- molecule: "Cc1nc2c3c(c(C(F)(F)F)cc2n1C)-c1cccn2c(C(=O)c4cc(F)c(NC(=O)C=CCNC5CCOC5)c(F)c4)nc(c12)CCN3C (centres unmarked)"
  measuredOn: "MIA PaCa-2 cells"
  pIC50: 7.72

// next item, pIC50 requested
Lab note: Cn1cnc2c3c(c(C(F)(F)F)cc21)-c1cccn2c(C(=O)c4cc(F)c(NC(=O)/C=C/CN5[C@@H]6CC[C@H]5[C@@H](O)C6)c(F)c4)cc(c12)CCO3 (racemic) gave pIC50 of 7.79

###

Molecular target: biotinylated KRAS G12C protein (GMP-PNP loaded) and GST-tagged Ras binding domain of c-RAF (Homo sapiens, UniProt P01116, C118S/C51S/C80L/G12C)
Sequence (P01116 with tags, fused parts or gaps isoform P01116-2 G12C/C51S/C80L/C118S): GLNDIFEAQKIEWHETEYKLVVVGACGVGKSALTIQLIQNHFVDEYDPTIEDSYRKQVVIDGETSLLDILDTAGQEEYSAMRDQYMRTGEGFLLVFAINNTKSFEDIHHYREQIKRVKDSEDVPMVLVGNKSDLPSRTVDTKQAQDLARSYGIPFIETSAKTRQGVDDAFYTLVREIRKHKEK
Assay: RAS:RAF-RBD binding assay (TR-FRET)
Conditions: 30-minute incubation of compound with KRAS G12C before RAF-RBD; Table 4; read-out: IC50
yes if IC50 is below 20 nM. no if not; exact matches included in no.

query: Bench note: check whether Cc1nc2c3c(c(C(F)(F)F)cc2n1C)-c1cccn2c(C(=O)c4cc(F)c(NC(=O)/C=C/CN5CCC5CC(C)(C)O)c(F)c4)cc(c12)CCN3C (single isomer, unassigned) [Example 299] shows IC50 below 20 nM
result: no

query: Please let me know if COCc1nc2c3c(c(OC)cc2n1C)-c1cccn2c(C(=O)c4cc(F)c(NC(=O)/C(F)=C/CNC5(C)CC5)c(F)c4)cc(c12)CCN3C shows IC50 below 20 nM.
result: no

query: # strict comparison: is reported IC50 < 20 nM? input = COCc1nc2c3c(c(OC)cc2n1C)-c1cccn2c(C(=O)c4cc(F)c(NC(=O)/C=C/CN5CC6(CCCOC6)C5)c(F)c4)cc(c12)CCN3C (single isomer, unassigned)
result: no

query: API: query returns whether the compound falls strictly under 20 nM in IC50. Query: Cc1nc2c3c(c(C(F)(F)F)cc2n1C)-c1cccn2c(C(=O)c4cc(F)c(NC(=O)/C=C/CNC5CCOC5)c(F)c4)cc(c12)CCO3 (single isomer, unassigned) [Example 270]
result: yes

query: Strictly below 20 nM in IC50? Cc1nc2c3c(c(C(F)(F)F)cc2n1C)-c1cccn2c(C(=O)c4cc(F)c(NC(=O)C=CCN5CCC5CC(=O)N(C)C)c(F)c4)cc(c12)CCO3 (centres unmarked)
result: no

###

Molecular target: interaction between GMPPNP-bound recombinant K-Ras4B G12C mutant protein and cRAF RAS-binding domain (cRAF-RBD) (Homo sapiens, UniProt P01116, G12C)
Construct: His-tag (N)
Sequence (P01116 with tags, fused parts or gaps isoform P01116-2 G12C): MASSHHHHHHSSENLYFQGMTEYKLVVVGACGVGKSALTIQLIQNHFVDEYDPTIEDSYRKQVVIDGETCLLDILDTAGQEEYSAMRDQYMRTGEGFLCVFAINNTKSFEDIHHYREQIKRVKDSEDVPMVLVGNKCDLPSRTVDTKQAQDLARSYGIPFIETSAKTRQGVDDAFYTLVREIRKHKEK
Assay: Inhibitory activity on interaction between KRAS G12C and cRAF (Alpha technology)
Conditions: GMPPNP-bound KRAS G12C incubated with compound 25° C. 1 hour; Table 2; read-out: IC50
Kindly supply the reported IC50 values for the records listed here.
Answers are plain numbers, in nM.

- molecule: "Cc1nc2c3c(c(C(F)(F)F)cc2n1C)-c1cccn2c(C(=O)c4cc(F)c(NC(=O)/C=C/CNC5(C)CCOCC5)c(F)c4)cc(c12)CCO3"
  u: "nM"
  numericResult: 8

Kindly give each listed record's IC50.
1. CO[C@H]1CC[C@H](NC/C=C/C(=O)Nc2c(F)cc(C(=O)c3cc4c5c(cccn35)-c3c(C)cc5c(nc(C)n5C)c3OCC4)cc2F)CC1
2. CO[C@H]1CC[C@H](NC/C=C/C(=O)Nc2c(F)cc(C(=O)c3cc4c5c(cccn35)-c3c(C(F)(F)F)cc5c(nc(C)n5C)c3OC(C)C4)cc2F)CC1 (single isomer, unassigned) [Example 42-1]

result:
1: 27; 2: 11

###

Record form. Attribute: IC50. Fill in for each entry.
Target: interaction between GMPPNP-bound recombinant K-Ras4B G12C mutant protein and cRAF RAS-binding domain (cRAF-RBD) (Homo sapiens, UniProt P01116, G12C)
Construct: His-tag (N)
Test: Inhibitory activity on interaction between KRAS G12C and cRAF (Alpha technology)
Conditions: GMPPNP-bound KRAS G12C incubated with compound 25° C. 1 hour; Table 2-1; read-out: IC50
Method: Interaction between recombinant K-Ras4B G12C mutant protein (amino acids 1-169, SEQ ID NO:2) and cRAF RAS-binding domain (cRAF-RBD, amino acids 50-132, Jena Biosciences GmbH) was measured using Alpha technology (PerkinElmer Inc.). Recombinant KRAS G12C protein with an N-terminal His-tag was expressed in E. coli and purified by affinity chromatography. […]
Answers are plain numbers, in nM.

- molecule: "CN1CCc2cc(C(=O)c3cc(F)c(NC(=O)/C=C/CNC4(C)COC4)c(F)c3)n3cccc(c23)-c2c(C(F)(F)F)cc3[nH]cnc3c21 (single isomer, unassigned) [Example 179]"
  IC50, nM: 41.6
- molecule: "CN1CCc2cc(C(=O)c3cc(F)c(NC(=O)/C=C/CN[C@H]4CCOC4)c(F)c3)n3cccc(c23)-c2c(C(F)(F)F)cc3c(ncn3C3CC3)c21 [Example 166]"
  IC50, nM: 33.7

Hello, I would appreciate it if you could give IC50 for each entry below.
1. Cc1nc2c3c(c(C(F)(F)F)cc2n1C)-c1cccn2c(C(=O)c4cc(F)c(NC(=O)/C=C/CNC5(C)COC5)c(F)c4)cc(c12)CCN3C (single isomer, unassigned) [Example 71]
2. Cn1cnc2c3c(c(C(F)(F)F)cc21)-c1cccn2c(C(=O)c4cc(F)c(NC(=O)/C=C/CN5CC6CCC5CO6)c(F)c4)cc(c12)CCO3 (centres unmarked) [Example 220]
3. CN1CCc2cc(C(=O)c3cc(F)c(NC(=O)/C=C/CN[C@@H]4CCCC[C@H]4O)c(F)c3)n3cccc(c23)-c2c(C(F)(F)F)cc3c(ncn3C)c21 [Example 100]
4. Cc1cc2c(ncn2C)c2c1-c1cccn3c(C(=O)c4cc(F)c(NC(=O)/C=C/CN[C@H]5CCOC5)c(F)c4)cc(c13)CCN2C (single isomer, unassigned) [Example 117]
5. COc1cc2c(nc(C)n2C)c2c1-c1cccn3c(C(=O)c4cc(F)c(NC(=O)/C=C/CNC(C)(C)CF)c(F)c4)cc(c13)CCN2C [Example 93]
6. CN1CCc2cc(C(=O)c3cc(F)c(NC(=O)/C=C/CNC4(CO)CCCC4)c(F)c3)n3cccc(c23)-c2c(C(F)(F)F)cc3c(ncn3C)c21 [Example 109]
7. COc1cc2c(nc(C)n2C)c2c1-c1cc(F)cn3c(C(=O)c4cc(F)c(NC(=O)/C=C/CN[C@H]5CCOC5)c(F)c4)cc(c13)CCN2C (single isomer, unassigned) [Example 237]
8. COc1cc(N2CCCC2=O)cc2c1-c1cccn3c(C(=O)c4cc(F)c(NC(=O)/C=C/CNC5(C)CC5)c(F)c4)cc(c13)CCO2 [Example 210]

result:
1: 20.2; 2: 24.4; 3: 34.5; 4: 20.5; 5: 33.6; 6: 24.8; 7: 11.4; 8: 38.1

Give me IC50 for each of these molecules, listed below.
1. CN1CCc2cc(C(=O)c3cc(F)c(NC(=O)/C=C/CN4CCC[C@H]4CO)c(F)c3)n3cccc(c23)-c2c(C(F)(F)F)cc3c(ncn3C)c21 [Example 227]
2. CN1CCc2cc(C(=O)c3cc(F)c(NC(=O)/C=C/CN[C@H]4CCCC[C@@H]4O)c(F)c3)n3cccc(c23)-c2c(C(F)(F)F)cc3c(ncn3C)c21 [Example 101]
3. Cn1cnc2c3c(c(C(F)(F)F)cc21)-c1cccn2c(C(=O)c4cc(F)c(NC(=O)/C=C/CN5CCCOCC5)c(F)c4)cc(c12)CCO3 [Example 193]
4. COCc1nc2c3c(c(C)cc2n1C)-c1cccn2c(C(=O)c4cc(F)c(NC(=O)/C=C/CN[C@H]5CCOC5)c(F)c4)cc(c12)CCN3C (single isomer, unassigned) [Example 106]
5. COCCn1cnc2c3c(c(OC)cc21)-c1cccn2c(C(=O)c4cc(F)c(NC(=O)/C=C/CNC5(C)CC5)c(F)c4)cc(c12)CCN3C (single isomer, unassigned) [Example 202]
6. Cc1nnc2c3c(c(C(F)(F)F)cn12)-c1cccn2c(C(=O)c4cc(F)c(NC(=O)/C=C/CN[C@H]5CCOC5)c(F)c4)cc(c12)CCN3C [Example 217]
7. Cn1cnc2c3c(c(C(F)(F)F)cc21)-c1cccn2c(C(=O)c4cc(F)c(NC(=O)/C=C/CN5CC[C@@H](O)C5)c(F)c4)cc(c12)CCO3 [Example 151]

result:
1: 34; 2: 27.4; 3: 39.6; 4: 18; 5: 13; 6: 19.7; 7: 15.5

All figures here come from patent US20240262842A1.
